Molecular target: ERα (Homo sapiens)
Sequence (P03372 whole entry): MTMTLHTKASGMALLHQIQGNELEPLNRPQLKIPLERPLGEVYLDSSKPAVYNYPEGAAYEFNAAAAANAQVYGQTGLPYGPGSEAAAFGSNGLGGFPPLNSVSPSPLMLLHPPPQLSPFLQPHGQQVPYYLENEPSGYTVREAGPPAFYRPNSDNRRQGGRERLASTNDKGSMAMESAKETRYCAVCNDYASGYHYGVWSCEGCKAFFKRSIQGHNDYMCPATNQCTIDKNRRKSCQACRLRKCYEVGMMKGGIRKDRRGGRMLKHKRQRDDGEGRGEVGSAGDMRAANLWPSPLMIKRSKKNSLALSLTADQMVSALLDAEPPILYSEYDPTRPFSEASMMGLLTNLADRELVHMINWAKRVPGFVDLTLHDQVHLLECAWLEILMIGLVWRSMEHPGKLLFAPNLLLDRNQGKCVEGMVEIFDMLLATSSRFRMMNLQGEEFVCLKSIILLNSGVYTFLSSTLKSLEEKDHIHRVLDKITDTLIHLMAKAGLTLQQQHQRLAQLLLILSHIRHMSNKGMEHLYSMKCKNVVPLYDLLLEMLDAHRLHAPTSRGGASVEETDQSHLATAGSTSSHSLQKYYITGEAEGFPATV
Experiment: ERα reporter (luciferase) transactivation assay in transfected HEK293 cells
Assay type: cell-based
Parameters: expressed in transfected cells; host or cells: HEK293
Settings: sample concentration 10 μM, 24 hours, mean of at least three independent transfections
metric: ERα receptor activation relative to 10 nM E2 corresponding 100 (%)

a. Oc1ccc(CCCC2=NOC(Cc3ccc(O)cc3)C2)cc1 (single isomer, unassigned) [101b]
b. c1ccc(CCC2CC(c3ccccc3)=NO2)cc1 (single isomer, unassigned) [111b]
Which item exceeds the other in ERα receptor activation relative to 10 nM E2 corresponding 100, a or b ? Indicate your choice by writing its label.
a
